Where these numbers come from: paper PMC12362098

Biological target: T1, Cdc13-L91R (Saccharomyces cerevisiae, UniProt P32797 1-924, L91R)
T1 sequence: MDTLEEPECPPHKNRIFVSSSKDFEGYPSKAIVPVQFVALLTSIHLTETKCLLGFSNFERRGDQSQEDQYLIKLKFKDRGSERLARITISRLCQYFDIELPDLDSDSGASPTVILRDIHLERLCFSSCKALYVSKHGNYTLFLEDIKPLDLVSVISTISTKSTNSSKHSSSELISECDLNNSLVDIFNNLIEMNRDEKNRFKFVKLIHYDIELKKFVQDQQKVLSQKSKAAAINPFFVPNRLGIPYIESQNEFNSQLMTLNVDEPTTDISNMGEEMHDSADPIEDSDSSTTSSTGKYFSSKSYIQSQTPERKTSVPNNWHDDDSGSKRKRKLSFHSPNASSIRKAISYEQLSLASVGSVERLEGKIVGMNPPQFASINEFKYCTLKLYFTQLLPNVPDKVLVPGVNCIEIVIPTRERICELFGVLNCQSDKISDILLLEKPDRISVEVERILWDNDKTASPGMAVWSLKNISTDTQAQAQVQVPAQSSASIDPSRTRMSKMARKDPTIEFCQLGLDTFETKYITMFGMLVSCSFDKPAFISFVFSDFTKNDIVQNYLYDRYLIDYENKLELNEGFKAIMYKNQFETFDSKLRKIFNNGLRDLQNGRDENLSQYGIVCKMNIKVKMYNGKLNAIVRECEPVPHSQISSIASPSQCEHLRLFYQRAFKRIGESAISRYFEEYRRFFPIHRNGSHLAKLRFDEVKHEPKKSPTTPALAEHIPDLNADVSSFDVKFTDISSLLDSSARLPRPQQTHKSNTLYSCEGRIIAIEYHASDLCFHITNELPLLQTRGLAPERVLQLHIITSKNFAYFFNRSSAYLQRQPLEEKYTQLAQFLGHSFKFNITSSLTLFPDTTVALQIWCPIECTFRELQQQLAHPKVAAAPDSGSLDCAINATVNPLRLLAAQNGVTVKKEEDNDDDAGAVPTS
Test: competition EMSA (DDE assay); EC50 for displacing 2 nM prebound IR800-Tel30G; 3.75 nM monomer; 30 C; 25 mM HEPES pH 8.0, 50 mM NaOAc, 150 mM NaCl, 7.5 mM MgCl2 (1x DNA-binding buffer); DDE incubation 30 C, 8% native gel; mass photometry at room temperature after 30 C incubation; BLI buffer details not in material
Settings: protein: recombinant; label: 5' IRDye700
pIC50: −log10 of the molar value.
observable: pIC50

• CGCCATGCTGATCCGTGTGGTGTGTGTGGG (ssDNA) [IR700-Tel30G] = 7.50
